Biological target: human B1R receptor (hB1R) (Homo sapiens, UniProt P46663)
Construct: expressed in transfected cells; host or cells: CHO K1 cells, stably transfected
Sequence (P46663 1-353): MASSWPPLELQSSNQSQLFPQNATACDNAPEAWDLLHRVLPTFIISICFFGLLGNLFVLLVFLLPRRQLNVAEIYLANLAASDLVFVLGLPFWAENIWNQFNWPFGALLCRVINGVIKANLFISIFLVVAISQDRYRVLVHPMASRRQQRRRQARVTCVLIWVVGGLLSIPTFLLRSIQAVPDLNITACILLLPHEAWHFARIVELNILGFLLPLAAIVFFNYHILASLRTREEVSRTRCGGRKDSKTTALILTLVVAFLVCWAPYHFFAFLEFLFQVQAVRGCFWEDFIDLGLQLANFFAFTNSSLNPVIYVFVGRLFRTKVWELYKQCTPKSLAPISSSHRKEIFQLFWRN
Assay: FLIPR Ca2+ functional study on bradykinin receptor 1, hB1R cells (CHO K1)
Type: cell-based
Settings: CHO-K1, 10 μM test substance; CHO K1 cells with human B1R; agonist Lys-Des-Arg9-bradykinin at EC80; read-out: B1R antagonism, human [10 μM] % inhibition
READOUT_KIND: inhibition at 10 µM
Respond with the figure and its unit, in that order.

So what's the measured inhibition at 10 µM for this one? `O=C(c1ccc(Cl)s1)N1CCc2cccc(C(=O)N3CCC4(CC3)CCN(c3ccncc3)CC4)c2C1` 99%

So what's the measured inhibition at 10 µM for this one? `Cc1cccc(Cl)c1S(=O)(=O)N1CCCc2ccc(CC(=O)N3CCC4(CC3)CCN(c3ccncc3)CC4)cc21` 97%

Further cases:
So what's the measured inhibition at 10 µM for this one? `COc1cc(C)c(S(=O)(=O)N2CCCc3ccc(CC(=O)N4CCC5(CC4)CC(c4ccncc4)=NO5)cc32)c(C)c1` 65%

So what's the measured inhibition at 10 µM for this one? `COc1cc(C)c(C(=O)N2Cc3ccc(C(=O)N4CCC5(CC4)CCN(c4ccncc4)CC5)cc3C2)c(C)c1` 85%

So what's the measured inhibition at 10 µM for this one? `O=C(c1cc2c(s1)CCN(C(=O)c1ccccc1Cl)C2)N1CCC2(CC1)CCN(c1ccncc1)CC2` 66%

So what's the measured inhibition at 10 µM for this one? `COc1cc(C)c(S(=O)(=O)N2CCc3cccc(C(=O)N4CCC5(CC4)CCN(c4ccncc4)CC5)c3C2)c(C)c1` 99%

So what's the measured inhibition at 10 µM for this one? `O=C(NCc1ccccc1Cl)N1CCc2ccc(C(=O)N3CCC4(CC3)CCN(c3ccncc3)CC4)cc2C1` 97%

###

Target: human B1R receptor (hB1R) (Homo sapiens, UniProt P46663)
Construct: expressed in transfected cells; host or cells: CHO K1 cells, stably transfected
Sequence (P46663 1-353): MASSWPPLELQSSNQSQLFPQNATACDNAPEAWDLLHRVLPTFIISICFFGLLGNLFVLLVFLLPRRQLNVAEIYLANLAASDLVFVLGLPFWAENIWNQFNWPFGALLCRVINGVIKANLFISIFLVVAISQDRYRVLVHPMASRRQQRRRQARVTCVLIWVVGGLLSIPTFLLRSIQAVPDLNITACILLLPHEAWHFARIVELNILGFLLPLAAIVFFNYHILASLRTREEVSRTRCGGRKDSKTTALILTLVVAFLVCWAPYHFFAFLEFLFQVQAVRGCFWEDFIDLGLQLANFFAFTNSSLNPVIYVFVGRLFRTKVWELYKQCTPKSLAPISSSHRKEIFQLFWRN
Experiment: FLIPR Ca2+ functional study on bradykinin receptor 1, hB1R cells (CHO K1)
Format: cell-based
Settings: CHO-K1, 10 μM test substance; CHO K1 cells with human B1R; agonist Lys-Des-Arg9-bradykinin at EC80; read-out: B1R antagonism, human [10 μM] % inhibition
READOUT_KIND: inhibition at 10 µM

For the record `O=C(Cc1ccc2c(c1)N(S(=O)(=O)c1cccc3ccccc13)CCC2)N1CCC2(CCC(N3CCC3)CC2)CC1` , what value of inhibition at 10 µM is listed for human B1R receptor (hB1R) (Homo sapiens, UniProt P46663)? 57%

For the record `O=C(c1ccc2c(c1)CN(S(=O)(=O)c1cccc3c(Cl)cccc13)CC2)N1CCC2(CC1)CCN(c1ccncc1)CC2` , what value of inhibition at 10 µM is listed for human B1R receptor (hB1R) (Homo sapiens, UniProt P46663)? 44%

For the record `Cc1cc(S(=O)(=O)N2CCc3ccc(C(=O)N4CCC5(CC4)CCN(c4ccncc4)CC5)cc32)c(C)cc1Cl` , what value of inhibition at 10 µM is listed for human B1R receptor (hB1R) (Homo sapiens, UniProt P46663)? 87%

Now, please, on to the next molecule.
For the record `O=C(Cc1ccc2c(c1)N(S(=O)(=O)c1ccc(OC(F)(F)F)cc1Cl)CCC2)N1CCC2(CC1)CCN(c1ccncc1)CC2` , what value of inhibition at 10 µM is listed for human B1R receptor (hB1R) (Homo sapiens, UniProt P46663)? 79%
